molecular target: T1, human ErbB2 ECD-myc/His fusion protein (human, UniProt P04626 23-652); experiment: SPR, Biacore 2000 medium resolution; mAb captured on goat anti-human IgG, ErbB2(ECD)-cMyc/His injected; 1:1 fit
T1 construct: Made in-house in 293T cells; also called hErbB2(ECD)/cMyc-His; huErbB2 (ECD)/c-myc-His; not shown: c-myc/His tag of the pSecTag2Hygro vector
Provide the reported Kd of each item.
One number for each entry, in nM.

Example binders with recorded Kd:
monoclonal antibody 1.96 (antibody, V domains shown, Fully human IgG (gamma/kappa) from a XenoMouse XM3B-3 hybridoma; constant regions not tied to it) VH: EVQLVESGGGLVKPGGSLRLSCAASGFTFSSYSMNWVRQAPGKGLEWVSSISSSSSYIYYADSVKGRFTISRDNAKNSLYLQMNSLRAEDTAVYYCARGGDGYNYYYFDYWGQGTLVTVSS VL: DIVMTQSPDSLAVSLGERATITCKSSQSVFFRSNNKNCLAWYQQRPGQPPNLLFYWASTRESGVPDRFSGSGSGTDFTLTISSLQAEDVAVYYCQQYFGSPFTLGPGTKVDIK ... 2.6
monoclonal antibody 1.20 (antibody, V domains shown, Fully human IgG (gamma/kappa) from a XenoMouse XM3B-3 hybridoma; constant regions not tied to it; also called 1.20.1; 1.19) VH: EVQLVESGGGLVKPGGSLRLSCAASGFTFSSYTMNWVRQAPGKGLEWVSSISSSSSYIYYADSVKGRFTISRDNAKNSLYLQMNSLSAEDTAVYSCARGGDGYNYYYFDYWGQGTLVTVSS VL: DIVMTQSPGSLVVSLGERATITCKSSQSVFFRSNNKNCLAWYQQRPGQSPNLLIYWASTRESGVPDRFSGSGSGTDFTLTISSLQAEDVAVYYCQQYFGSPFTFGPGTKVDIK ... 3.6

# input for lookup
Measured Kd of monoclonal antibody 1.18.1 (antibody, V domains shown, Fully human IgG (gamma/kappa) from a XenoMouse XM3B-3 hybridoma; constant regions not tied to it) VH: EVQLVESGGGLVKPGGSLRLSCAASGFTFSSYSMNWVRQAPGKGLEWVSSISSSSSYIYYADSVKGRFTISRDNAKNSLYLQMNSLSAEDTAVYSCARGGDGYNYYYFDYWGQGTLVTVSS VL: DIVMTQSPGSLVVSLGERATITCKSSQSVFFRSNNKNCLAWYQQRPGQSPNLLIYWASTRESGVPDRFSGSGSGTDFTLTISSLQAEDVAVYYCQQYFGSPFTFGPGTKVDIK : 3
